Reference source for all entries: paper PMC11439681

# TARGET OR TEST SYSTEM: YES1 (Homo sapiens, UniProt P07947)
# Sequence (P07947 whole entry): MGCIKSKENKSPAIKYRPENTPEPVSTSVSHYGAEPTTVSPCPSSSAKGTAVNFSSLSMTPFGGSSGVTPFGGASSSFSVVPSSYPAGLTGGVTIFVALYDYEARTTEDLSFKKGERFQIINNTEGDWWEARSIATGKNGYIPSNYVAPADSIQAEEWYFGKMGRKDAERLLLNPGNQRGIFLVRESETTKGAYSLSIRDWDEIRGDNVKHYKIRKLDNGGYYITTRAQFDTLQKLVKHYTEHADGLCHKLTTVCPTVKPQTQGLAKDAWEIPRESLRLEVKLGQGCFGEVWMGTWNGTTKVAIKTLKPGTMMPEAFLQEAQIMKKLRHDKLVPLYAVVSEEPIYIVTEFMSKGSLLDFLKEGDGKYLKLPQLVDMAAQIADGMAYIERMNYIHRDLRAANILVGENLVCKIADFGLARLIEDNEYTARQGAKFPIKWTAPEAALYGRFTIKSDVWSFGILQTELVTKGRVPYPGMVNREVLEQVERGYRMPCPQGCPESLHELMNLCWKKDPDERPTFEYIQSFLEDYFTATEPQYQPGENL
# ASSAY PROCEDURE: In vitro selectivity assay
# Assay type: biochemical
# PROTOCOL CONDITIONS: selectivity panel

RECORD SMILES | TARGET OR TEST SYSTEM | IC50
Cn1cc(-c2cc3cnc(Nc4ccc(-c5cncn5/C=C/C(=O)NO)cc4Cl)cc3n2C(=O)OC(C)(C)C)cn1 | YES1 (Homo sapiens, UniProt P07947) | > 10 µM

* * *

# TARGET OR TEST SYSTEM: FGFR4 (Homo sapiens, UniProt P22455)
# Sequence (P22455 22-802): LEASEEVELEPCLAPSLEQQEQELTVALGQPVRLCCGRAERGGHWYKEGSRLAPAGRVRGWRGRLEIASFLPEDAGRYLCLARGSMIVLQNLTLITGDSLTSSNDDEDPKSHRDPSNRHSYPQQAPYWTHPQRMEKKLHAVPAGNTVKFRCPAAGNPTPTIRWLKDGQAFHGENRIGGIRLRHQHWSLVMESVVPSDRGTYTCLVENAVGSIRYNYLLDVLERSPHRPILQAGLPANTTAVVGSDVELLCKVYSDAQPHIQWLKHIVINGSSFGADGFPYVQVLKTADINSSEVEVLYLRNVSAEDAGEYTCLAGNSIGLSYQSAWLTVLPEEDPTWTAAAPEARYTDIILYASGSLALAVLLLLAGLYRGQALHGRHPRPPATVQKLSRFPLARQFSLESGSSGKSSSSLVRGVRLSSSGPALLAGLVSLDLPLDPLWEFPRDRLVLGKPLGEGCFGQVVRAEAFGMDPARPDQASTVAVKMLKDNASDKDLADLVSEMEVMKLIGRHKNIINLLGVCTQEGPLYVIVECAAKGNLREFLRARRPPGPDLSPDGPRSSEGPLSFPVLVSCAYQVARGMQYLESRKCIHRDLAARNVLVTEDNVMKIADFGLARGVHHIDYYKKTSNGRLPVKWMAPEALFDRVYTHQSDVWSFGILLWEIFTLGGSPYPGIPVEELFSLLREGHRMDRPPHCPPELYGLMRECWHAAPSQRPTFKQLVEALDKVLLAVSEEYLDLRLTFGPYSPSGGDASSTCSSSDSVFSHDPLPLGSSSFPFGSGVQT
# ASSAY PROCEDURE: In vitro selectivity assay
# Assay type: biochemical
# PROTOCOL CONDITIONS: selectivity panel

RECORD SMILES | IC50
Cn1cc(-c2cc3cnc(Nc4ccc(-c5cncn5/C=C/C(=O)NO)cc4Cl)cc3n2C(=O)OC(C)(C)C)cn1 | > 10 µM
